Tested on: Pseudomonas
Test: Antibacterial activity against Pseudomonas pallida by agar well diffusion method
Type: functional
measured.quantity: MIC (µM)
All answers are understood in µM, so give the number only.

Incoming: I'd like to know its MIC. The compound in question is C[C@@H]([C@H]1CC=C2[C@@H]3CCC4=C[C@@H](N(C)C)CC[C@]4(C)[C@H]3CC[C@@]21C)N(C)C [HOOKERIANAMIDE K]
Outgoing: 169

====

Target: Acetylcholinesterase (Homo sapiens)
Sequence (P22303 whole entry): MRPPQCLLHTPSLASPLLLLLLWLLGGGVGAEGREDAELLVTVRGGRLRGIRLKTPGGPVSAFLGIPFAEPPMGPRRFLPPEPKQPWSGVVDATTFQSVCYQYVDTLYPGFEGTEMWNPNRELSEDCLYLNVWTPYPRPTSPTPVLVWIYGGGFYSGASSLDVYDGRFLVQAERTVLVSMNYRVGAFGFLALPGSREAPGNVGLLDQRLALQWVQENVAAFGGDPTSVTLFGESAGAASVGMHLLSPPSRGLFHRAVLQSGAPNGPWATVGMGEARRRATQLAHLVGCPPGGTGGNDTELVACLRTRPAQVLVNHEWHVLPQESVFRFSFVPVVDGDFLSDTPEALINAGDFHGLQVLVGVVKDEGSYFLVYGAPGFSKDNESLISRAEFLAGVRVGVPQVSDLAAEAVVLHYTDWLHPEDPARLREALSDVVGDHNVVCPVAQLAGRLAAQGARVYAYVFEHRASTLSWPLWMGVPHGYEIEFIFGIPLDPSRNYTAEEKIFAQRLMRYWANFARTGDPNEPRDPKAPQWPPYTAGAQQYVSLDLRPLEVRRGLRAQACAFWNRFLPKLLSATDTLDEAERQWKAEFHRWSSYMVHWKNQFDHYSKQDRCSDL
IC50 vs 20 µM: less than gives satisfied; not less than gives not satisfied.

Below, 5 compounds whose answers are already recorded.
compound	class
CN[C@@H](C)[C@H]1CC[C@H]2[C@@H]3CC=C4C(=O)[C@@H](NC(=O)C=C(C)C)CC[C@]4(C)[C@H]3CC[C@]12C	satisfied
C/C=C(\C)C(=O)N[C@H]1CC[C@]2(C)[C@H]3CC[C@]4(C)[C@@H]([C@H](C)NC)CC[C@H]4[C@@H]3CC[C@H]2[C@H]1OC(C)=O [SARCOVAGINE C]	satisfied
CC(C)=CC(=O)N[C@H]1CC[C@@]2(C)[C@@H](CC[C@@H]3[C@@H]2CC[C@]2(C)C([C@H](C)N(C)C)=CC[C@@H]32)[C@H]1O [HOOKERIANAMIDE J]	not satisfied
C[C@@H]([C@H]1CC=C2[C@@H]3CCC4=C[C@@H](N(C)C)CC[C@]4(C)[C@H]3CC[C@@]21C)N(C)C [HOOKERIANAMIDE K]	not satisfied
C[C@@H]([C@H]1CC[C@H]2[C@@H]3CC[C@H]4C[C@@H](N(C)C)CC[C@]4(C)[C@H]3CC[C@]12C)N(C)C	not satisfied

Would you kindly look at the next entry?
Incoming: Strictly below 20 µM in IC50? C[C@@H]([C@H]1CC[C@H]2[C@@H]3CC[C@H]4C[C@@H](N)CC[C@]4(C)[C@H]3CC[C@]12C)N(C)C [CHONEMORPHINE]
Outgoing: not satisfied

====

Test system: Micrococcus luteus
Test: Antibacterial activity against Micrococcus luteus assessed as zone of inhibition at 1.0 mg/mL by agar well diffusion method
Type: functional
Details: read-out: IZ
measured.quantity: zone of inhibition at 1000 µg/mL (mm)
Numbers only; they are read as mm.

molecule	uom	zone of inhibition at 1000 µg/mL
C/C=C(\C)C(=O)N[C@H]1CC[C@]2(C)[C@H]3CC[C@]4(C)[C@@H]([C@H](C)NC)CC[C@H]4[C@@H]3CC[C@H]2[C@H]1OC(C)=O	mm	13.5
C[C@@H]([C@H]1CC=C2[C@@H]3CCC4=C[C@@H](N(C)C)CC[C@]4(C)[C@H]3CC[C@@]21C)N(C)C [HOOKERIANAMIDE K]	mm	9.5

Okay, now this molecule:
Incoming: So what's the measured zone of inhibition at 1000 µg/mL for this one? C[C@@H]([C@H]1CC[C@H]2[C@@H]3CC[C@H]4C[C@@H](N(C)C)CC[C@]4(C)[C@H]3CC[C@]12C)N(C)C
Outgoing: 11

====

Tested on: Micrococcus luteus
Assay: Antibacterial activity against Micrococcus luteus assessed as zone of inhibition at 1.0 mg/mL by agar well diffusion method
Type: functional
Conditions: read-out: IZ
measured.quantity: zone of inhibition at 1000 µg/mL (mm)
Write the answer as a number in mm, unit excluded.

Check out these entries, answers already filled in.
molecule	measured.on	result.value
C[C@@H]([C@H]1CC[C@H]2[C@@H]3CC[C@H]4C(=O)C(NC=O)=CC[C@]4(C)[C@H]3CC[C@]12C)N(C)C [HOOKERIANAMIDE H]	Micrococcus luteus	11
C/C=C(\C)C(=O)NC1=CC[C@@]2(C)C(=CC[C@H]3[C@@H]4CC[C@H]([C@H](C)NC)[C@@]4(C)CC[C@@H]32)C1=O	Micrococcus luteus	12.5

Incoming: Give its zone of inhibition at 1000 µg/mL value. Item: C[C@@H]([C@H]1CC[C@H]2[C@@H]3CC[C@H]4C[C@@H](N)CC[C@]4(C)[C@H]3CC[C@]12C)N(C)C
Outgoing: 11.5

Incoming: And the next one, CN[C@@H](C)[C@H]1CC[C@H]2[C@@H]3CC[C@H]4C[C@@H](N(C)C(=O)c5ccccc5)CC[C@]4(C)[C@H]3CC[C@]12C [HOOKERIANAMIDE I] ?
Outgoing: 18
